Hey, just so you know, these numbers are from paper PMC6178183.

# methodNotes: Pharmacokinetic study in rats after oral administration of TMYX extract (HPLC-MS/MS of plasma)
# Assay type: in vivo, Sprague–Dawley rats
# assaySetup: rat plasma, oral TMYX extract 8.3 g/kg single dose, n=6, mean ± SD
For each entry below, report its T max1 value.
Answers are plain numbers, in min.

O=C(O)c1cc(O)c2c(c1)C(=O)c1cccc(O)c1C2=O    21.6

Look at each compound and report its T max1.
1. C[C@@H]1O[C@@H](O[C@@H]2[C@@H](O)[C@H](OCCc3ccc(O)c(O)c3)O[C@H](CO)[C@H]2OC(=O)/C=C/c2ccc(O)c(O)c2)[C@H](O)[C@H](O)[C@H]1O [verbascoside]
2. COc1cc2c(c(OC)c1OC)-c1c(cc(OC)c(OC)c1OC)C[C@](C)(O)[C@@H](C)C2
3. OC[C@H]1O[C@@H](Oc2c(O)cc(O)cc2/C=C/c2ccc(O)cc2)[C@H](O)[C@@H](O)[C@@H]1O [stilbene glycoside]
4. O=C1C[C@@H](c2ccc(O[C@@H]3O[C@H](CO)[C@@H](O)[C@H](O)[C@H]3O)cc2)Oc2cc(O)ccc21
5. O=C(O)c1cc(O)c(O)c(O)c1
6. COc1ccc(-c2coc3cc(O[C@@H]4O[C@H](CO)[C@@H](O)[C@H](O)[C@H]4O)ccc3c2=O)cc1

22.2
60
30
30
45
27.6

Which measured T max1 value corresponds to "Cc1cc(O)c2c(c1)C(=O)c1cc(O)cc(O)c1C2=O" ?
19.2

---

# methodNotes: Stability of analytes in rat plasma QC samples under storage conditions
# Assay type: in vitro ADME
# assaySetup: rat plasma, n=6; low QC: spiked 20 ng/mL glycyrrhizic acid; 10 liquiritin; 2 emodin, gallic acid, ononin, schisandrin, stilbene glycoside; 1 isoliquiritigenin, liquiritigenin, rhein, verbascoside
For each entry below, report its Measured Concentration, room temperature for 6 h value.
Give your result as the value with the unit written after it.

Look at each compound and report its Measured Concentration, room temperature for 6 h.
1. COc1cc2c(c(OC)c1OC)-c1c(cc(OC)c(OC)c1OC)C[C@](C)(O)[C@@H](C)C2
2. O=C(O)c1cc(O)c(O)c(O)c1
3. COc1ccc(-c2coc3cc(O[C@@H]4O[C@H](CO)[C@@H](O)[C@H](O)[C@H]4O)ccc3c2=O)cc1
4. Cc1cc(O)c2c(c1)C(=O)c1cc(O)cc(O)c1C2=O

1. 2.00 ± 0.04 ng/mL
2. 1.97 ± 0.03 ng/mL
3. 2.02 ± 0.03 ng/mL
4. 1.95 ± 0.05 ng/mL

---

# methodNotes: Stability of analytes in rat plasma QC samples under storage conditions
# Format: in vitro ADME
# assaySetup: prepared rat plasma samples, n=6; high QC: spiked 2000 ng/mL glycyrrhizic acid; 1000 liquiritin; 200 emodin, gallic acid, ononin, schisandrin, stilbene glycoside; 100 isoliquiritigenin, liquiritigenin, rhein, verbascoside
Outcome label depends on Measured Concentration, auto-sampler for 12 h relative to 200 ng/mL: at/above gives true (1), below gives false (0).

Completed entries (count: 2):
CC1(C)[C@@H](O[C@H]2O[C@H](C(=O)O)[C@@H](O)[C@H](O)[C@H]2O[C@@H]2O[C@H](C(=O)O)[C@@H](O)[C@H](O)[C@H]2O)CC[C@]2(C)[C@H]3C(=O)C=C4[C@@H]5C[C@@](C)(C(=O)O)CC[C@]5(C)CC[C@@]4(C)[C@]3(C)CC[C@@H]12 [glycyrrhizic acid]    true (1)
C[C@@H]1O[C@@H](O[C@@H]2[C@@H](O)[C@H](OCCc3ccc(O)c(O)c3)O[C@H](CO)[C@H]2OC(=O)/C=C/c2ccc(O)c(O)c2)[C@H](O)[C@H](O)[C@H]1O [verbascoside]    false (0)

Now consider the entry below.
Record O=C(O)c1cc(O)c(O)c(O)c1 [gallic acid] ; criterion: Measured Concentration, auto-sampler for 12 h no lower than 200 ng/mL. Met?
false (0)

---

# methodNotes: Pharmacokinetic study in rats after oral administration of TMYX extract (HPLC-MS/MS of plasma)
# Format: in vivo, Sprague–Dawley rats
# assaySetup: male, Sprague-Dawley; rat plasma, oral TMYX extract 8.3 g/kg single dose, n=6; read-out: K e (converted)
measure: k el (s⁻¹)
One number for each entry, in s⁻¹.

Worked set:
O=C(O)c1cc(O)c(O)c(O)c1 [gallic acid]    7.5e-05
Cc1cc(O)c2c(c1)C(=O)c1cc(O)cc(O)c1C2=O [emodin]    0.000108

Here is another molecule to look at.
Which measured k el value corresponds to O=C1C[C@@H](c2ccc(O)cc2)Oc2cc(O)ccc21 [liquiritigenin] ?
0.000139

---

# methodNotes: Stability of analytes in rat plasma QC samples under storage conditions
# Format: in vitro ADME
# assaySetup: rat plasma, n=6; high QC: spiked 2000 ng/mL glycyrrhizic acid; 1000 liquiritin; 200 emodin, gallic acid, ononin, schisandrin, stilbene glycoside; 100 isoliquiritigenin, liquiritigenin, rhein, verbascoside
measure: Measured Concentration, -70°C for 14 days

O=C1C[C@@H](c2ccc(O[C@@H]3O[C@H](CO)[C@@H](O)[C@H](O)[C@H]3O)cc2)Oc2cc(O)ccc21 [liquiritin]    1021.69 ± 19.98 ng/mL

Look at each molecule and report its Measured Concentration, -70°C for 14 days.
1. C[C@@H]1O[C@@H](O[C@@H]2[C@@H](O)[C@H](OCCc3ccc(O)c(O)c3)O[C@H](CO)[C@H]2OC(=O)/C=C/c2ccc(O)c(O)c2)[C@H](O)[C@H](O)[C@H]1O [verbascoside]
2. CC1(C)[C@@H](O[C@H]2O[C@H](C(=O)O)[C@@H](O)[C@H](O)[C@H]2O[C@@H]2O[C@H](C(=O)O)[C@@H](O)[C@H](O)[C@H]2O)CC[C@]2(C)[C@H]3C(=O)C=C4[C@@H]5C[C@@](C)(C(=O)O)CC[C@]5(C)CC[C@@]4(C)[C@]3(C)CC[C@@H]12 [glycyrrhizic acid]
3. O=C(O)c1cc(O)c(O)c(O)c1 [gallic acid]

1. 107.40 ± 1.47 ng/mL
2. 1834.54 ± 29.34 ng/mL
3. 199.19 ± 1.80 ng/mL
